- Test system: Methicillin Resistant Staphylococcus aureus strain USA 300, NRS384
- Assay text: Minimum inhibitory concentration, broth micro-dilution (CLSI), S. aureus
- Type: cell-based
- Setup conditions: Staphylococcus aureus, MRSA / NRS 384 / USA300, 22 h, MRSA USA 300 NRS384; 35° C., 22 hours; read-out: MIC (μg/mL) S. aureus
Quantity name: MIC

// known answers, use as guide
Exercise: What value of measured MIC is listed for CCCCCCc1ccc(C(=O)N[C@@H](CCN)C(=O)N(C)[C@@H]2C(=O)N[C@@H](C)C(=O)N[C@H](C(=O)NCC#N)Cc3ccc(OCCN)c(c3)-c3cc2ccc3OCCN)cc1 ?
Solution: 0.063 µg/mL

Exercise: Give its MIC value. Item: CCCC#Cc1ccc(C(=O)N[C@@H](CCN)C(=O)N(C)[C@@H]2C(=O)N[C@@H](C)C(=O)N[C@H](C(=O)NCC#N)Cc3ccc(OCCN)c(c3)-c3cc2ccc3OCCN)c(C)c1
Solution: 0.25 µg/mL

Next compound, please.
Exercise: Please give the measured MIC for this compound: CCCCCCCCCC(=O)N[C@H](C)C(=O)NCCC(=O)N[C@@H](CCN)C(=O)N(C)[C@@H]1C(=O)N[C@@H](C)C(=O)N[C@H](C(=O)NCC#N)Cc2ccc(OCCN)c(c2)-c2cc1ccc2OCCN
Solution: 0.38 µg/mL
